Assay: Selectivity for human recombinant COX2 to ovine COX1
measured_quantity: Selectivity ratio

compound_smiles: COc1ccc(-c2ccccc2-c2nc3ccccc3o2)cc1OC1CCCC1
Selectivity ratio: 0.87

[A] O=Cc1ccc(-c2ccccc2-c2nc3ccccc3o2)cc1
[B] COc1ccc(-c2ccccc2-c2nc3ccccc3o2)cc1Cl
[C] Fc1ccc(-c2ccccc2-c2nc3ccccc3o2)cc1
[D] c1ccc(-c2ccccc2-c2nc3ccccc3o2)cc1
[E] FC(F)(F)c1ccc(-c2ccccc2-c2nc3ccccc3o2)cc1
Hey, quick one: sort these by Selectivity ratio, largest value first please. Record the ranking as a list of labels in the requested order.
B, A, E, C, D
